In this section we review reported binding remaining, % of control values for a set of compounds.
Assay: inhibitors of CD8+ T cell–vesicle binding, dose response, mouse 2C CD8+ T cells, flow cytometry (AID 485284);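 further: drosophila derived vesicles carrying Ld MHC with QL9 peptide plus B7-1 and ICAM-1; vesicle binding seen as anti-B7-1 PE fluorescence on CD8 gated cells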
Conditions: 2C mouse CD8+ T cell-exosome binding; at 45 µM (top of the series)
Results with a measured potency or affinity are listed apart.
Provide the reading as a plain figure in %.

// worked examples, binding remaining, % of control included
structure-smiles	binding remaining, % of control (%)
C=CCN(c1ccc(Br)cc1C(=O)OC)S(C)(=O)=O	115
O=C(COc1ccccc1)Nc1cc(S(=O)(=O)N2CCOCC2)ccc1N1CCCC1	128

Kindly consider the entry below.
binding remaining, % of control for "COc1ccc([C@H]2CC(=O)C=C(/C=C/c3ccccc3)C2)cc1" ?
52.1
